All values here come from patent US20230346670A1.

# System: human oral keratinocytes (HOK-18A)
# Assay method text: Inflammatory mediator gene expression in keratinocytes exposed to substrate-treated biofilms (SYBR RT-qPCR)
# Type: cell-based
# Condition summary: HOK-18A exposed to biofilms treated with substrate 1 M; relative to control; n = 3
Readout kind: fold change in MMP-8 gene expression, geometric mean (C.I.)

>  <Compound>
OC[C@H]1O[C@@H](O[C@H]2[C@H](O)[C@@H](O)[C@@H](O)O[C@@H]2CO)[C@H](O)[C@@H](O)[C@H]1O [D-lactose, α-D-lactose]

>  <Result>
0.78 (0.38-1.61) fold

$$$$
>  <Compound>
OC[C@H]1O[C@H](OC[C@H]2O[C@H](O[C@]3(CO)O[C@H](CO)[C@@H](O)[C@@H]3O)[C@H](O)[C@@H](O)[C@@H]2O)[C@H](O)[C@@H](O)[C@H]1O [D-raffinose, D-(+)-raffinose]

>  <Result>
0.85 (0.61-1.19) fold

$$$$
>  <Compound>
CC(=O)N[C@H]1C(O)O[C@H](CO)[C@@H](O)[C@@H]1O (stereo partly drawn) [NADG, N-acetyl-D-glucosamine]

>  <Result>
1.28 (0.79-2.08) fold

$$$$
>  <Compound>
OC[C@H]1O[C@H](O[C@H]2O[C@H](CO)[C@@H](O)[C@H](O)[C@H]2O)[C@H](O)[C@@H](O)[C@@H]1O [D-trehalose, D-(+)-trehalose]

>  <Result>
0.81 (0.68-0.95) fold

$$$$
